Biological target: recombinant human VEGF-R2 (Homo sapiens)
Sequence (P35968 20-1356): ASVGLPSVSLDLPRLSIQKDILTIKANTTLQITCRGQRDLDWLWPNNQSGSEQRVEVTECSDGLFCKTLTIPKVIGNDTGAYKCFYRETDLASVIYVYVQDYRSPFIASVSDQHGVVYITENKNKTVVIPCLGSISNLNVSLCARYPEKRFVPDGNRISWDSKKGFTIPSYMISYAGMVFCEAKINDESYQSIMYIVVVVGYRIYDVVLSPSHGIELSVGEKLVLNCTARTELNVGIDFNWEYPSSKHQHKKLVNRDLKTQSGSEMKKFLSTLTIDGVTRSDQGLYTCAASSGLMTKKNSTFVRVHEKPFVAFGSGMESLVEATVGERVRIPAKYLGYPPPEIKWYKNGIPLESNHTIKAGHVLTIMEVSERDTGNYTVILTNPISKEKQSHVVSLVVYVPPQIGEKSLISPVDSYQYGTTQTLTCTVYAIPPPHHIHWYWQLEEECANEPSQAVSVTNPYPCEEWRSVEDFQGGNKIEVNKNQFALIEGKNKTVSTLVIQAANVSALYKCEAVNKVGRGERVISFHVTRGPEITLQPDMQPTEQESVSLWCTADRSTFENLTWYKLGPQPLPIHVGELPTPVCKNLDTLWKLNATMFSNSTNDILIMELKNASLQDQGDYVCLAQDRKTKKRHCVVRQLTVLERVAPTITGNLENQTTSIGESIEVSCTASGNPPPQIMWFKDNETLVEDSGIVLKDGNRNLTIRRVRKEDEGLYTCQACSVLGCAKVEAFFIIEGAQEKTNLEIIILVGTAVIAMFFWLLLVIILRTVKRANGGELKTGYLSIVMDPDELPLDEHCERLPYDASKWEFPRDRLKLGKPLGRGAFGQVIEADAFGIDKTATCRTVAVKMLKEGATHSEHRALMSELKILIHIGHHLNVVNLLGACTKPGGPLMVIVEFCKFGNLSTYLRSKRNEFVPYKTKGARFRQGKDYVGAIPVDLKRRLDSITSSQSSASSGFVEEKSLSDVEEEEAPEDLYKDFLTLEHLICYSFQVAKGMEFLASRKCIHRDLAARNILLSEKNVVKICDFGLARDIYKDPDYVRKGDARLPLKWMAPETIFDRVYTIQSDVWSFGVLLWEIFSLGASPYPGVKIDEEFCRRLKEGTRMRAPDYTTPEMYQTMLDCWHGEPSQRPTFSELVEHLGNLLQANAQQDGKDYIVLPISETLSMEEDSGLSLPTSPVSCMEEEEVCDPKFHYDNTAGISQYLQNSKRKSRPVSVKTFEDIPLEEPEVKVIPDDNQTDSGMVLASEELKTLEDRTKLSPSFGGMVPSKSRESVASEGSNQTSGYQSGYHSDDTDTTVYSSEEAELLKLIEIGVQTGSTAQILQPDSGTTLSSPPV
Experiment: VEGF-R2 Kinase Assay (ELISA)
Conditions: 10 μM ATP, 25° C. 30 minutes, read-out: IC50 (VEGFR/bio)
metric_name: IC50
I'd appreciate it if you included the unit after the number.

Problem: State its IC50 on recombinant human VEGF-R2 (Homo sapiens): CCN(CC)CCN1CCc2[nH]c(/C=C3\C(=O)Nc4cccc(-c5cccc(F)c5F)c43)c(C)c2C1=O [Example 39]
Result: 7.1 nM

Problem: Write down the reported IC50 of Cc1c(/C=C2\C(=O)Nc3ncnc(Nc4ccc(F)c(Cl)c4)c32)[nH]c2c1C(=O)N(CCN1CCOCC1)CC2 [Example 24] , test system: recombinant human VEGF-R2 (Homo sapiens).
Result: 680 nM

Problem: // lookup IC50 | system=recombinant human VEGF-R2 (Homo sapiens) | key= CCN(CC)CCN1CCc2[nH]c(/C=C3\C(=O)Nc4cccc(Br)c43)c(C)c2C1=O [Example 30]
Result: 94 nM

Problem: Form field - read-out: IC50; system: recombinant human VEGF-R2 (Homo sapiens); submitted item: CCN(CC)CCN1CCc2[nH]c(/C=C3\C(=O)Nc4ncnc(Nc5ccc(F)c(Cl)c5)c43)c(C)c2C1=O [Example 12]
Result: 1890 nM

Problem: Query IC50 on recombinant human VEGF-R2 (Homo sapiens) for CCN(CC)CCN1CCc2[nH]c(/C=C3\C(=O)Nc4cccc(-c5cccc(Cl)c5F)c43)c(C)c2C1=O [Example 36]
Result: 10 nM

Problem: Please tell me: IC50 of CCN(CC)CCN1CCc2[nH]c(/C=C3\C(=O)Nc4cccc(-c5ccc(Cl)cc5F)c43)c(C)c2C1=O [Example 34] , system recombinant human VEGF-R2 (Homo sapiens)?
Result: 11 nM

Problem: Lab request: please report IC50 under test system recombinant human VEGF-R2 (Homo sapiens) for CCN(CC)CCN1CCc2[nH]c(/C=C3\C(=O)Nc4cccc(C5CCNCC5)c43)c(C)c2C1=O [Example 31]
Result: 35 nM

Problem: recombinant human VEGF-R2 (Homo sapiens) / IC50 / Cc1c(/C=C2\C(=O)Nc3ccc(Br)cc32)[nH]c2c1C(=O)N(CCN1CCCC1)CC2 [Example 40] : value?
Result: 47 nM

Problem: recombinant human VEGF-R2 (Homo sapiens) / IC50 / Cc1c(/C=C2\C(=O)Nc3ccc(Cl)cc32)[nH]c2c1C(=O)N(CCN1CCOCC1)CC2 [Example 16] : value?
Result: 44 nM

Problem: Test system recombinant human VEGF-R2 (Homo sapiens); read-out IC50; what value for Cc1c(/C=C2\C(=O)Nc3cccc(C4CCNCC4)c32)[nH]c2c1C(=O)N(CCN1CCOCC1)CC2 [Example 52] ?
Result: 1270 nM

Problem: API: value(readout= IC50, system= recombinant human VEGF-R2 (Homo sapiens), query= CCN(CC)CCN1CCc2[nH]c(/C=C3\C(=O)Nc4cccc(CCO)c43)c(C)c2C1=O [Example 37] )
Result: 70 nM

* * *

Molecular target: HER-2/ErbB2 kinase (Homo sapiens, UniProt P04626)
Sequence (P04626 23-1255): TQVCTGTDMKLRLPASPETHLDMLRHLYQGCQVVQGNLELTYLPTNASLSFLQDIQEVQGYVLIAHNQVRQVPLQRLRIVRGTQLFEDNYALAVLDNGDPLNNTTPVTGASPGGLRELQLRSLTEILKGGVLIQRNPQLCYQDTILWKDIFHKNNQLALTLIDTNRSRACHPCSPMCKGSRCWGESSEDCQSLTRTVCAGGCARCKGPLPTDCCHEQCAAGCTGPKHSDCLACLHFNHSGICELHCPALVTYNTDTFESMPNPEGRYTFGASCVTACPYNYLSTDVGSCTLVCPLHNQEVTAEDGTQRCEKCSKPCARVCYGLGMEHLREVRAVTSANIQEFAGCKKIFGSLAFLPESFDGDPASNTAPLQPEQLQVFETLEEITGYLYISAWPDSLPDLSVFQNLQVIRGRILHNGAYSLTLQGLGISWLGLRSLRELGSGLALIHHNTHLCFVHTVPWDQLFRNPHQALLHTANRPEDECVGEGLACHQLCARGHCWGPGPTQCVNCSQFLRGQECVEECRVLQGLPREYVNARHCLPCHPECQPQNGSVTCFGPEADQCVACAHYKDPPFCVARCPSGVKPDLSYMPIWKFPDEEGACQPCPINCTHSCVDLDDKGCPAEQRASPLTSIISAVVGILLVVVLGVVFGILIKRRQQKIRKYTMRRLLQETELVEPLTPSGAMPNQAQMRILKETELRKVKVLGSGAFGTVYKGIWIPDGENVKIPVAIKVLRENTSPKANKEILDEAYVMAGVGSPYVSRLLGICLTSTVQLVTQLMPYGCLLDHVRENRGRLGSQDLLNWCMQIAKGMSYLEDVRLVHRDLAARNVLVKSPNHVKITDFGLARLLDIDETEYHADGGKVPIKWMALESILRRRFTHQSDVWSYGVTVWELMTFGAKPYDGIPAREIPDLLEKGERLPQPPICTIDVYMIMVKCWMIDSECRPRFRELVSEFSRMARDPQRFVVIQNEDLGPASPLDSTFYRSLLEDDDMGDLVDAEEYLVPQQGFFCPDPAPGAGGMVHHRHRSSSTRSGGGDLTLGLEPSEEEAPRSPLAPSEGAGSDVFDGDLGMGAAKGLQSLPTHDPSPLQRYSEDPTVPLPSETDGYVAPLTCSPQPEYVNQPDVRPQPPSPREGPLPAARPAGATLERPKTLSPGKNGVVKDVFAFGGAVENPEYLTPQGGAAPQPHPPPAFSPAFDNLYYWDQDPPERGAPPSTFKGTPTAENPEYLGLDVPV
Assay: HER-2 Kinase Assay (ELISA)
Settings: 20 μM ATP, 25° C. 60 minutes
Consider the following compounds; for each one, report its log10 IC50.
A difference of one corresponds to tenfold IC50; all values are log10 with IC50 in nM.

Problem: Record request: log10 IC50 value, item Cc1c(/C=C2\C(=O)Nc3cccc(Br)c32)[nH]c2c1C(=O)N(CCN1CCOCC1)CC2 [Example 49]
Result: 4.56

Problem: Bench note: what log10 IC50 did Cc1c(/C=C2\C(=O)Nc3cccc(Br)c32)[nH]c2c1C(=O)N(CCN1CCCC1)CC2 [Example 69] show?
Result: 2.96

Problem: Given Cc1c(/C=C2\C(=O)Nc3cccc(C4CCNCC4)c32)[nH]c2c1C(=O)N(CCN1CCCC1)CC2 [Example 71] , state its recorded log10 IC50.
Result: 3.04

Problem: What value of measured log10 IC50 is listed for Cc1c(/C=C2\C(=O)Nc3cccc(-c4cccc(Cl)c4F)c32)[nH]c2c1C(=O)N(CCN1CCCC1)CC2 [Example 68] ?
Result: 2.72

Problem: Please give the measured log10 IC50 for this compound: CCN(CC)CCN1CCc2[nH]c(/C=C3\C(=O)Nc4cccc(C5CCNCC5)c43)c(C)c2C1=O [Example 31]
Result: 2.99

Problem: Consider the compound Cc1c(/C=C2\C(=O)Nc3cccc(-c4cccc(F)c4)c32)[nH]c2c1C(=O)N(CCN1CCCCC1)CC2 [Example 64] and give its measured log10 IC50.
Result: 2.83

Problem: Name the reported log10 IC50 value associated with the compound Cc1c(/C=C2\C(=O)Nc3cccc(-c4cccc(F)c4F)c32)[nH]c2c1C(=O)N(CCN1CCCC1)CC2 [Example 59]
Result: 2.86

Problem: Fill in: log10 IC50 of CCN(CC)CCN1CCc2[nH]c(/C=C3\C(=O)Nc4ncnc(Nc5ccc(F)c(Cl)c5)c43)c(C)c2C1=O [Example 12] is ___
Result: 1.95

* * *

Molecular target: HER-2/ErbB2 kinase (Homo sapiens, UniProt P04626)
Assay: HER-2 Kinase Assay (ELISA)
Conditions: 20 μM ATP, 25° C. 60 minutes
metric_name: IC50 (µM)
Kindly answer with a numeric value in µM, unit omitted.

Problem: Hi! What's the reported IC50 for CCN(CC)CCN1CCc2[nH]c(/C=C3\C(=O)Nc4cccc(-c5cccc(F)c5F)c43)c(C)c2C1=O [Example 39] on HER-2/ErbB2 kinase (Homo sapiens, UniProt P04626)?
Result: 0.27

Problem: Request - read-out IC50 | tested on HER-2/ErbB2 kinase (Homo sapiens, UniProt P04626) | compound Cc1c(/C=C2\C(=O)Nc3cccc(CCO)c32)[nH]c2c1C(=O)N(CCN1CCOCC1)CC2 [Example 42]
Result: 41.1

Problem: What value of IC50 on HER-2/ErbB2 kinase (Homo sapiens, UniProt P04626) does Cc1c(/C=C2\C(=O)Nc3ncnc(Nc4ccc(F)c(Cl)c4)c32)[nH]c2c1C(=O)N(CCN1CCOCC1)CC2 [Example 24] have?
Result: 0.83

Problem: // fetch HER-2/ErbB2 kinase (Homo sapiens, UniProt P04626) IC50 for Cc1c(/C=C2\C(=O)Nc3cccc(C4CCNCC4)c32)[nH]c2c1C(=O)N(CCN1CCOCC1)CC2 [Example 52]
Result: 8.32

* * *

Tested on: A431 cell
Experiment: Cell Proliferation Inhibition EGFR Assay (SRB method)
Type: cell-based, homo sapient
Conditions: Homo sapiens, A-431; A431 cells, 72 hours exposure, Sulforhodamine B; read-out: IC50 (A431)
pIC50: −log10 of the molar value.
# binarize pIC50: threshold 6 inclusive, high side class 1, low side class 0

Problem: Given the entry `Cc1c(/C=C2\C(=O)Nc3cccc(Br)c32)[nH]c2c1C(=O)N(CCN1CCCC1)CC2` , answer whether its pIC50 meets or surpasses 6.
Result: class 1

Problem: Determine whether this molecule has pIC50 no lower than 6: `Cc1c(/C=C2\C(=O)Nc3ncc(Br)cc32)[nH]c2c1C(=O)N(CCN1CCOCC1)CC2`
Result: class 0

Problem: Reported pIC50 at or above 6? `Cc1c(/C=C2\C(=O)Nc3cccc(C4CCNCC4)c32)[nH]c2c1C(=O)N(CCN1CCOCC1)CC2`
Result: class 0

Problem: Has `O=C(CO)Nc1cc2c(cc1F)/C(=C/c1[nH]c3c(c1-c1ccc(F)cc1)C(=O)NCC3)C(=O)N2` a recorded pIC50 greater than or equal to 6?
Result: class 0

* * *

Tested on: A431 cell
Experiment: Cell Proliferation Inhibition EGFR Assay (SRB method)
Assay type: cell-based, homo sapient
Conditions: Homo sapiens, A-431; A431 cells, 72 hours exposure, Sulforhodamine B; read-out: IC50 (A431)
pIC50: −log10 of the molar value.
Binary call on pIC50: class 1 from 6 upward, class 0 beneath that.

Problem: Does pIC50 meet or surpass 6 for Cc1c(/C=C2\C(=O)Nc3ncc(Br)cc32)[nH]c2c1C(=O)N(CCN1CCCCC1)CC2 [Example 93] ?
Result: class 0

Problem: Decide: pIC50 of Cc1c(/C=C2\C(=O)Nc3ccc(NC=O)cc32)[nH]c2c1C(=O)N(CCN1CCCCC1)CC2 [Example 91] >= 6?
Result: class 1

Problem: Can Cc1c(/C=C2\C(=O)Nc3cccc(CCO)c32)[nH]c2c1C(=O)N(CCN1CCOCC1)CC2 [Example 42] be said to have pIC50 at or above 6?
Result: class 0

Problem: hey, is pIC50 for this one >= 6? Cc1c(/C=C2\C(=O)Nc3cccc(-c4cccc(Cl)c4F)c32)[nH]c2c1C(=O)N(CCN1CCCC1)CC2 [Example 68]
Result: class 0

Problem: Does pIC50 meet or surpass 6 for CCN(CC)CCN1CCc2[nH]c(/C=C3\C(=O)Nc4cccc(CCO)c43)c(C)c2C1=O [Example 37] ?
Result: class 0

Problem: Quick check, pIC50 >= 6? Cc1c(/C=C2\C(=O)Nc3cccc(C4CCNCC4)c32)[nH]c2c1C(=O)N(CCN1CCCC1)CC2 [Example 71]
Result: class 1

Problem: Tell me whether pIC50 is at least 6 here: CCN(CC)CCN1CCc2[nH]c(/C=C3\C(=O)Nc4cccc(-c5ccc(Cl)cc5F)c43)c(C)c2C1=O [Example 34]
Result: class 0

Problem: Does pIC50 meet or surpass 6 for CCN(CC)CCN1CCc2[nH]c(/C=C3\C(=O)Nc4cccc(-c5cccc(F)c5F)c43)c(C)c2C1=O [Example 39] ?
Result: class 1

Problem: Answer whether pIC50 of Cc1c(/C=C2\C(=O)Nc3ncnc(Nc4ccc(F)c(Cl)c4)c32)[nH]c2c1C(=O)N(CCN1CCOCC1)CC2 [Example 24] is greater than or equal to 6.
Result: class 1

Problem: Could you verify whether the entry Cc1c(/C=C2\C(=O)Nc3cccc(-c4cccc(F)c4)c32)[nH]c2c1C(=O)N(CCN1CCCCC1)CC2 [Example 64] shows pIC50 of no less than 6?
Result: class 1

Problem: API: above_or_equal(metric=pIC50, cutoff=6) for item CCN(CC)CCN1CCc2[nH]c(/C=C3\C(=O)Nc4cc(NC(C)=O)c(F)cc43)c(C)c2C1=O [Example 9]
Result: class 0

Problem: Reported pIC50 reaches at least 6 for CCN(CC)CCN1CCc2[nH]c(/C=C3\C(=O)Nc4cc(N)c(F)cc43)c(C)c2C1=O [Example 7] ?
Result: class 0

Problem: Could you verify whether the entry Cc1c(/C=C2\C(=O)Nc3cccc(-c4cccc(Cl)c4F)c32)[nH]c2c1C(=O)N(CCN1CCOCC1)CC2 [Example 48] shows pIC50 of no less than 6?
Result: class 0

Problem: Please check the record CCN(CC)CCN1CCc2[nH]c(/C=C3\C(=O)Nc4c(N)cc(F)cc43)c(C)c2C1=O [Example 4] and state if its pIC50 is at or above 6.
Result: class 0

Problem: Entry Cc1c(/C=C2\C(=O)Nc3ccc(NS(C)(=O)=O)cc32)[nH]c2c1C(=O)N(CCN1CCOCC1)CC2 [Example 22] : is its pIC50 no less than 6?
Result: class 0

Problem: Hi, just wondering whether Cc1c(/C=C2\C(=O)Nc3cc(NCc4ccc(F)cc4)c(F)cc32)[nH]c2c1C(=O)N(CCN1CCCCC1)CC2 [Example 94] shows pIC50 of 6 or higher.
Result: class 1

// provenance: patent US8697692B2
